# MIC per record follows
test system: Pseudomonas aeruginosa; test: Antibacterial activity against multidrug-resistant Pseudomonas aeruginosa ATCC BAA2108 after 18 hrs by Mueller-Hinton broth microdilution method; format: functional; details: ATCC BAA2108, 18 h

Illustrative cases are given below, each with its answer.
molecule: COc1ccc2cc3[n+](cc2c1OC)CCc1cc2c(cc1-3)OCO2.[Cl-] [BERBERINE CHLORIDE]
endpoint-value: > 192 µg/mL
//
molecule: CCOc1ccccc1Nc1c2ccccc2[n+](C)c2c1[nH]c1ccccc12.[I-]
endpoint-value: 64 µg/mL
//
molecule: CN[C@H](CC(C)C)C(=O)N[C@H]1C(=O)N[C@@H](CC(N)=O)C(=O)N[C@H]2C(=O)N[C@H]3C(=O)N[C@H](C(=O)N[C@H](C(=O)O)c4cc(O)cc(O)c4-c4cc3ccc4O)[C@H](O)c3ccc(c(Cl)c3)Oc3cc2cc(c3O[C@@H]2O[C@H](CO)[C@@H](O)[C@H](O)[C@H]2O[C@H]2C[C@](C)(N)[C@H](O)[C@H](C)O2)Oc2ccc(cc2Cl)[C@H]1O [VANCOMYCIN]
endpoint-value: > 64 µg/mL
//
molecule: Cc1ccc(Nc2c3ccccc3[n+](C)c3c2oc2ccccc23)cc1C.[I-]
endpoint-value: > 64 µg/mL
//
molecule: Cc1cc(C)cc(Nc2c3ccccc3[n+](C)c3c2[nH]c2ccccc23)c1.[I-]
endpoint-value: > 64 µg/mL

Entry COc1cccc(Nc2c3ccccc3[n+](C)c3c2[nH]c2ccccc23)c1.[I-] , MIC reported as > 64 µg/mL
